Test system: Lipid bilayer
Assay: Binding affinity to DPPC liposomes at 1:2 to 1:10 drug to DPPC liposome molar ratio by [31P] NMR spectroscopic analysis
The source made the active and inactive calls. The rule behind the calls is not given here.
Pick one and only one: active, inactive

Hey, what did the test say about COc1ccc(C(=O)O[C@@](Cn2cncn2)(c2ccc(F)cc2F)[C@@H](C)c2ncncc2F)cc1 [VORICONAZOLE P-METHOXY BENZOATE] ?
active

Hey, what did the test say about Cc1ccc(C(=O)O[C@@](Cn2cncn2)(c2ccc(F)cc2F)[C@@H](C)c2ncncc2F)cc1 [VORICONAZOLE TOLUATE] ?
active

Hey, what did the test say about C[C@@H](c1ncncc1F)[C@@](Cn1cncn1)(OC(=O)c1ccccc1)c1ccc(F)cc1F [VORICONAZOLE BENZOATE] ?
active

Hey, what did the test say about C[C@@H](c1ncncc1F)[C@@](Cn1cncn1)(OC(=O)c1ccc([N+](=O)[O-])cc1)c1ccc(F)cc1F [VORICONAZOLE P-NITRO BENZOATE] ?
active

Hey, what did the test say about `C[C@@H](c1ncncc1F)[C@](O)(Cn1cncn1)c1ccc(F)cc1F` ?
inactive

* * *

Test system: Candida albicans
Assay: Antifungal activity against Candida albicans ATCC 10231 assessed as acetate level after 32 hrs by [1H] NMR spectroscopic analysis
Assay type: functional
REPORTED ENDPOINT: Activity (µg/mL)
Please give a number only; it is taken to be in µg/mL.

Consider the worked cases shown below.
COMPOUND: Cc1ccc(C(=O)O[C@@](Cn2cncn2)(c2ccc(F)cc2F)[C@@H](C)c2ncncc2F)cc1 [VORICONAZOLE TOLUATE]
Activity [µg/mL]: 5

COMPOUND: COc1ccc(C(=O)O[C@@](Cn2cncn2)(c2ccc(F)cc2F)[C@@H](C)c2ncncc2F)cc1 [VORICONAZOLE P-METHOXY BENZOATE]
Activity [µg/mL]: 2

COMPOUND: C[C@@H](c1ncncc1F)[C@@](Cn1cncn1)(OC(=O)c1ccc([N+](=O)[O-])cc1)c1ccc(F)cc1F [VORICONAZOLE P-NITRO BENZOATE]
Activity [µg/mL]: 6

COMPOUND: C[C@@H](c1ncncc1F)[C@](O)(Cn1cncn1)c1ccc(F)cc1F
Activity [µg/mL]: 2

Note: attention shifts to another entry.
Quote Activity with test system Candida albicans for C[C@@H](c1ncncc1F)[C@@](Cn1cncn1)(OC(=O)c1ccccc1)c1ccc(F)cc1F [VORICONAZOLE BENZOATE]
4
